# experimental target: T1, BFRF1 (Epstein-Barr virus, UniProt P03185)
# T1 chain: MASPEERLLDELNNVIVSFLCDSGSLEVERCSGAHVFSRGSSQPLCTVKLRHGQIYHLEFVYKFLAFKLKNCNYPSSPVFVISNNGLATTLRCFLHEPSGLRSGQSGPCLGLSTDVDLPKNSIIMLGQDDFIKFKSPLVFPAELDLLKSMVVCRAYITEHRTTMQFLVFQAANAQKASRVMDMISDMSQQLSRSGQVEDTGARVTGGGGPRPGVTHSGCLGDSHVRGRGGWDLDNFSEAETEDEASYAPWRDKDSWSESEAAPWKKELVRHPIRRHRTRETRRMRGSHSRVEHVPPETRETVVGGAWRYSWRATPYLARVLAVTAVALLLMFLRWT
# procedure text: fluorescence polarization
pKd: −log10 of the molar value.
value type: pKd

binder="DRSHFSLRDFFRGISANFELGKDFLREMNTPIH [BFLF2 hook peptide 78-110]" value_type=pKd endpoint_result=6.93
